- Test system: U2OS
- Experiment Description: Incucyte cell viability with U2OS; further: filed as whole numbers so only -1 and 0 and 1 occur
- Format: toxicity, cell-based
- Test Settings: human, 6 h, 10 µM, compound concentration 10 uM, replicate number 1, timepoint 6 hours
Task for the reader: assign each of the following compounds its reported Growth Rate.
Numbers only.

Completed entries (count: 3):
{"Compound": "CCOc1cc2ncc(C#N)c(Nc3ccc(OCc4ccccn4)c(Cl)c3)c2cc1NC(=O)/C=C/CN(C)C", "Reported Value": 0}
{"Compound": "O=C1NC(c2ccccn2)Sc2ccccc21 (stereo not given)", "Reported Value": 0}
{"Compound": "CCNc1cc(N[C@H]2CC[C@H](O)CC2)nc(Nc2ccc3c(ccn3Cc3ccccc3)c2)n1", "Reported Value": 0}

Take each entry in turn and give its Growth Rate.
1. COc1cc(-c2cn(C)c(=O)c3cnccc23)c(OC)cc1CN(C)C
2. CCc1cccc(CC)c1NC(=O)c1nn(C)c2c1CCc1cnc(Nc3ccc(C(=O)NC4CCN(C)CC4)cc3OC(F)(F)F)nc1-2

Reply:
0
1
